- Target Of Assay: T1, similar peptide SP-05-0010, source protein not stated peptide on HLA-A*02:01 (human)
- T1 peptide: RIFETVNSV
- Procedure Summary: killing

Binder | binding result
TCR-11 (TCR, V domains shown) Valpha: IQVEQSPPDLILQEGANSTLRCNFSDSVNNLQWFHQNPWGQLINLFYIPSGTKQNGRLSATTVATERYSLLYISSSQTTDSGVYFCAVNTGTASKLTFGTGTRLQVTL Vbeta: GVTQTPKFQVLKTGQSMTLQCAQDMNHNSMYWYRQDPGMGLRLIYYSASEGTTDKGEVPNGYNVSRLNKREFSLRLESAAPSQTSVYFCASSPRGQGRSYEQYFGPGTRLTVT | no recognition
TCR-4 (TCR, V domains shown) Valpha: QSVAQPEDQVNVAEGNPLTVKCTYSVSGNPYLFWYVQYPNRGLQFLLKYITGDNLVKGSYGFEAEFNKSQTSFHLKKPSALVSDSALYFCAAPRDDKIIFGKGTRLHILP Vbeta: GVTQTPKFRVLKTGQSMTLLCAQDMNHEYMYWYRQDPGMGLRLIHYSVGEGTTAKGEVPDGYNVSRLKKQNFLLGLESAAPSQTSVYFCASSYLRTGGNEQFFGPGTRLTVL | no recognition
TCR-1 (TCR, V domains shown) Valpha: QTVTQSQPEMSVQEAETVTLSCTYDTSENNYYLFWYKQPPSRQMILVIRQEAYKQQNATENRFSVNFQKAAKSFSLKISDSQLGDTAMYFCAPLGLVAGSARQLTFGSGTQLTVLP Vbeta: GVSQDPRHKITKRGQNVTFRCDPISEHNRLYWYRQTLGQGPEFLTYFQNEAQLEKSRLLSDRFSAERPKGSFSTLEIQRTEQGDSAMYLCASSTDITSYEQYFGPGTRLTVT | no recognition
